B1: BMPRII extracellular domain (ECD), wild type [human] / BMP10 growth factor (GF)-domain from Pro:BMP10 made in HEK EBNA cells [human] (parent)
chain 1: SQNQERLCAFKDPYQQDLGIGESRISHENGTILCSKGSTCYGLWEKSKGDINLVKQGCWSHIGDPQECHYEECVVTTTPPSIQNGTYRFCCCSTDLCNVNFTENFPPPDTTPLSPPHSFNRDET
chain 2: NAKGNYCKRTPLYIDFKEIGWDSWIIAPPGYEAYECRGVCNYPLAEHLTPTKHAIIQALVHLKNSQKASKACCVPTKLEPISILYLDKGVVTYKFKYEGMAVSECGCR

Variants of: B1
measurement-notes: native PAGE prodomain displacement (densitometry)
study-conditions: with BMP10 growth factor (GF)-domain from Pro:BMP10 made in HEK EBNA cells [human]; BMPRII ECD at 2-fold excess (2x) over Pro:BMP10; lower ratio = more prodomain displaced; parent: 0.59; read off a plot
observable: screen value

chain 1 S81P: 0.7
chain 1 G63W: 0.9
chain 1 G42D: 0.82
chain 1 Q66H: 0.77
chain 1 G63E: 0.99

A: chain 1 G63A
B: chain 1 E72K
Q: Looking only at measured screen value, which entry is lower, A or B ? Refer to your chosen entry by its label in the reply.
A: B
(B: 0.49, A: 0.78)

1: chain 1 N100S
2: chain 1 Y41C
Q: Response body: label of entry with the larger screen value; valid values 1 , 2 . Refer to your chosen entry by its label in the reply.
A: 2
